# System name: ScLsb2
# Method description: SPOT peptide array binding signal intensity (averaged, normalized) (arbitrary units (background-subtracted, floor 0; scale differs between SH3 domains)); higher = stronger binding of the SH3 domain to the peptide
Measured property: SPOT peptide array binding signal intensity
Give bare numbers.

- Binder: "YLTRPLPSTPNEDSR"
  Value measured: 2.5

Next binder, please.
Q. Quick one: give measured SPOT peptide array binding signal intensity for `VATSTSPKLPPRGKQ`
A. 31
